As shown below, each of these compounds has a reported residual activity value.
- target_desc: TBK1 (human) (UniProt Q9UHD2)
- Sequence (Q9UHD2 whole entry, looked up): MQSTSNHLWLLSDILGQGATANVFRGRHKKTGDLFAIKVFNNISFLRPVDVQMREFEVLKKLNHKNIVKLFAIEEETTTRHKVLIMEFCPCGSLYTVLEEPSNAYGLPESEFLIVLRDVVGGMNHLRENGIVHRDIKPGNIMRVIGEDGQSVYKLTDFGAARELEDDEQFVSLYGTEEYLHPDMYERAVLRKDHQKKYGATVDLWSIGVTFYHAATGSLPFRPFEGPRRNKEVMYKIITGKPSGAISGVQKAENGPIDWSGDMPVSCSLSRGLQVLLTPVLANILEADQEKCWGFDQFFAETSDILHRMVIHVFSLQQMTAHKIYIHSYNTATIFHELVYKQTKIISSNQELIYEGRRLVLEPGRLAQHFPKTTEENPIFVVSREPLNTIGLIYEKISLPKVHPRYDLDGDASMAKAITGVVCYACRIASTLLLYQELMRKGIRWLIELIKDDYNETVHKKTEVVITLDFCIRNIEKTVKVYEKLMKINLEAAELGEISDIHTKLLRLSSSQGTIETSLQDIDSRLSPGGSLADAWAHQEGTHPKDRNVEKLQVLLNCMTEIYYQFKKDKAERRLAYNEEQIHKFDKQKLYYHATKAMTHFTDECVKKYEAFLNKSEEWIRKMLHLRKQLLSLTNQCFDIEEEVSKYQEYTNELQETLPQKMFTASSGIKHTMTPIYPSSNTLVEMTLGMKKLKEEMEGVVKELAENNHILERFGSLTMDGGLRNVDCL
- experiment_notes: radiometric filter-binding kinase assay
- cond: compound 10.0 µM

{"columns": ["compound", "residual activity, %"],
 "data": [
  ["CCCC(CCC)C(=O)O", 99],
  ["Cc1ccc(-c2ccc3c(ccc4sc5c(c43)NC[C@@H](C)NC5=O)n2)cn1", 96],
  ["O=C(NOCC(O)CO)c1ccc(F)c(F)c1Nc1ccc(I)cc1Cl (stereo not given)", 99],
  ["FC(F)(F)c1ccc(-c2ccc(Oc3cncc4sc(-c5nn[nH]n5)cc34)cc2)cc1", 63],
  ["CC(C)(C#N)c1ccc(N2C(=O)OCc3cnc4ccc(-c5cnc6ccccc6c5)cc4c32)cc1", 96],
  ["CCc1cncnc1N1CCN(Cc2nc3cc(C(F)(F)F)ccc3[nH]2)CC1", 97],
  ["O=C1Nc2nc(-c3c(O)cccc3OCC3CC3)cc(C3CCCNC3)c2CO1 (stereo not given)", 84],
  ["O=C(N[C@@H](COc1ccc2[nH]c(=O)[nH]c2c1)c1ccccc1)c1cccn(Cc2ccc(F)c(F)c2)c1=O", 102],
  ["NC(=O)c1cc(-c2ccnc(NC3CCCCC3)c2)nc(N2CCNCC2)c1", 30],
  ["COc1cc(C(=O)N2CCOCC2)c(F)cc1Nc1ncc(C(F)(F)F)c(NC2CC2)n1", 26]
]}

---

- target_desc: IKBKB (human)
- experiment_notes: radiometric filter-binding kinase assay
- cond: compound 0.1 µM

{"columns": ["compound", "residual activity (%)"],
 "data": [
  ["CN(C)C/C=C/C(=O)Nc1cccc(C(=O)Nc2ccc(Nc3nccc(-c4cccnc4)n3)cc2)c1", 76],
  ["NC(=O)Nc1ccc2c(c1)/C(=C/c1cc(-c3cccnc3)c[nH]1)C(=O)N2", 75],
  ["Cc1ccc(Sc2cnc(Nc3cccc(Br)n3)s2)cc1C(=O)N1CCN(C(=O)CN)CC1", 107],
  ["CN1CCN(CCOc2cc(OC3CCOCC3)c3c(Nc4c(Cl)ccc5c4OCO5)ncnc3c2)CC1", 119],
  ["CNc1nc(-c2ccc3c(N)n[nH]c3c2)cc(N2C[C@@H](C(=O)NC3CCCCC3)CC[C@H]2C)n1", 112],
  ["CC1=C(CO)C(=O)O[C@@H]([C@@H](C)[C@H]2CC[C@H]3[C@@H]4C[C@H]5O[C@]56[C@@H](O)C=CC(=O)[C@]6(C)C4CC[C@]23C)C1 (stereo partly drawn)", 103],
  ["Cc1cccc(-c2nn(C(=S)Nc3ccccc3)cc2-c2ccnc3ccccc23)n1", 107],
  ["COc1cc(O)c2c(c1)/C=C/C[C@H](O)[C@H](O)C(=O)/C=C\\C[C@H](C)OC2=O", 102]
]}

---

- target_desc: IGF1R (human)
- experiment_notes: radiometric filter-binding kinase assay
- cond: compound 1.0 µM
Recorded measurements of residual activity, one per entry
reported_endpoint: residual activity (%)

{"columns": ["compound", "target_desc", "observed"],
 "data": [
  ["CC1=C(CO)C(=O)O[C@@H]([C@@H](C)[C@H]2CC[C@H]3[C@@H]4C[C@H]5O[C@]56[C@@H](O)C=CC(=O)[C@]6(C)C4CC[C@]23C)C1 (stereo partly drawn)", "IGF1R (human)", 123],
  ["O=C(NCCCNc1nc(Nc2cccc(CN3CCOCC3)c2)ncc1C1CC1)C1CCC1", "IGF1R (human)", 105],
  ["O=C(Nc1nc2cc(C(F)(F)F)cc(NC3CC3)n2n1)c1cccnc1", "IGF1R (human)", 79]
]}
